For each of the compounds below, state its DC50.
system.name: human ferroportin-GFP (Homo sapiens)
Sequence (Q9NP59 whole entry): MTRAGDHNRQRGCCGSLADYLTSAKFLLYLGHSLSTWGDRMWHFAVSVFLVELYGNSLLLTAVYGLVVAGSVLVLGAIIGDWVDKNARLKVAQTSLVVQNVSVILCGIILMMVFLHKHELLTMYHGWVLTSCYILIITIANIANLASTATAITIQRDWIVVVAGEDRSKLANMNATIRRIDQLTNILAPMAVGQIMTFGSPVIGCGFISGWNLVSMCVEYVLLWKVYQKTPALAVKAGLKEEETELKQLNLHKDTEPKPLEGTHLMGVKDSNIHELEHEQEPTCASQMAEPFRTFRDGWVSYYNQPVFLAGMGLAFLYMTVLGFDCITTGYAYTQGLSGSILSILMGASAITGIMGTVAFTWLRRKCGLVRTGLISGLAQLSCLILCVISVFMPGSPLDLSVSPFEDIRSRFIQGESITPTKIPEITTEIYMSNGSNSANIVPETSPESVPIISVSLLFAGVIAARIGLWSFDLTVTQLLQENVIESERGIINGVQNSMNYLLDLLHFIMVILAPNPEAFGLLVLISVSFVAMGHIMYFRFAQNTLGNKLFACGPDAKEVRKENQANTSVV
test.details: cellular assay based on Fpn degradation (HEK293:TREX-Fpn-GFP cells, flow cytometry)
Type: cell-based
assay.context: peptide treatment 24 hours, loss of GFP fluorescence relative to Hep25, read-out: EC50 [nM] TREX-hFpn-GFP cells
Numbers only, in nM.

Example compounds with recorded DC50:
compound	units.label	endpoint.result
CCCCCCCCCCCCCCCCNC(=O)CN(CC(N)=O)C(=O)CCCCCNC(=O)C[C@H](Cc1ccccc1)NC(=O)[C@H](CCCNC(=N)N)NC(=O)[C@H](CSC=CC(=O)O)NC(=O)[C@H](CCCNC(=N)N)NC(=O)C[C@@H]1CCCN1C(=O)[C@@H](NC(=O)[C@H](Cc1c[nH]cn1)NC(=O)[C@@H](NC(=O)CNCC(=O)O)[C@@H](C)O)C(c1ccccc1)c1ccccc1 [PR73SD]	nM	218
CCCCCCCCCCCCCCCCNC(=O)CN(CC(N)=O)C(=O)CCCCCNC(=O)C[C@H](Cc1ccccc1)NC(=O)[C@H](CCCNC(=N)N)NC(=O)[C@H](CSC(=CC(=O)OCC)C(=O)OCC)NC(=O)[C@H](CCCNC(=N)N)NC(=O)C[C@@H]1CCCN1C(=O)[C@@H](NC(=O)[C@H](Cc1c[nH]cn1)NC(=O)[C@@H](NC(=O)CNCC(=O)O)[C@@H](C)O)C(c1ccccc1)c1ccccc1 [PR73SB]	nM	10.4

What does the record list as DC50 for CCCCCCCCCCCCCCCCNC(=O)CN(CC(N)=O)C(=O)CCCCCNC(=O)C[C@H](Cc1ccccc1)NC(=O)[C@H](CCCNC(=N)N)NC(=O)[C@H](CSC(=CS(=O)(=O)C(C)(C)C)S(=O)(=O)C(C)(C)C)NC(=O)[C@H](CCCNC(=N)N)NC(=O)C[C@@H]1CCCN1C(=O)[C@@H](NC(=O)[C@H](Cc1c[nH]cn1)NC(=O)[C@@H](NC(=O)CNCC(=O)O)[C@@H](C)O)C(c1ccccc1)c1ccccc1 [PR73SF] ?
10
